Cited source: PubChem BioAssay (EPA / NIEHS)

assay.protocol: ATG_M_32_CIS: Attagene CIS-FACTORIAL HepG2 Assay for M32 Transcription Factor (Internal Marker) (AID 2282949);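 further: background control marker of the multiplexed CIS panel rather than a real target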
test.context: HepG2 Attagene cis-factorial M32 reporter, mRNA; actives raise or lower the signal
Activity calls are given as the source filed them. How the source made its calls: active means hit-call score of the fitted dose curve at least 0.9, where 1 is the maximum; inactive means score below 0.9.
property.name: outcome

Guide cases for outcome, answers given:
input: Using known records, supply outcome for `CC(C)OC(=O)c1ccccc1C(=O)OC(C)C`
output: inactive

input: Using known records, supply outcome for `C1COCCN1`
output: inactive

input: Using known records, supply outcome for CC(CCl)OP(=O)(OC(C)CCl)OC(C)CCl (stereo unspecified)
output: inactive

input: Using known records, supply outcome for `Cc1ccc(S(=O)(=O)NCl)cc1`
output: inactive

input: Using known records, supply outcome for `O=C(O)C(F)(F)C(F)(F)C(F)(F)C(F)(F)C(F)(F)C(F)(F)C(F)(F)C(F)(F)C(F)(F)C(F)(F)C(F)(F)C(F)(F)F`
output: inactive

// below: outcome requested for another molecule
input: Using known records, supply outcome for CCCCCCC(C)OC(=O)CCCCC(=O)OC(C)CCCCCC (stereo unspecified)
output: inactive

###

target.system: Estrogen receptor beta (Homo sapiens)
assay.protocol: OT_ER_ERbERb_0480: Odyssey Thera (OT) 8-hour HEK293T Protein-Complementation Assay for Estrogen Receptor-beta/-beta Homodimer (AID 2283357);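 further: active means signal gain over DMSO baseline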
Records with an inconclusive call do not appear. The source made the active and inactive calls. How the source made its calls: active means hit-call score of the fitted dose curve at least 0.9, where 1 is the maximum; inconclusive means response in the unintended direction; inactive means score below 0.9.
Respond with a class label; see active, inactive

input: Per the records of this test, what outcome belongs to CC(Cc1ccc(O)c(O)c1)C(C)Cc1ccc(O)c(O)c1 (centres undefined) ?
output: active

input: Per the records of this test, what outcome belongs to `CCCCOc1ccc(N)cc1` ?
output: inactive

input: Per the records of this test, what outcome belongs to `CCCCCCOC(=O)c1ccccc1O` ?
output: inactive

input: Per the records of this test, what outcome belongs to `CCN(Cc1cccc(S(=O)(=O)O)c1)c1ccc(C(=C2C=CC(=[N+](CC)Cc3cccc(S(=O)(=O)O)c3)C=C2)c2ccc(O)cc2S(=O)(=O)[O-])cc1` ?
output: inactive

input: Per the records of this test, what outcome belongs to `Cc1cc(C)cc(O)c1` ?
output: inactive

input: Per the records of this test, what outcome belongs to `CCCCCCOC(=O)c1ccccc1` ?
output: inactive

input: Per the records of this test, what outcome belongs to `CC/C=C\CCOC(C)=O` ?
output: inactive

input: Per the records of this test, what outcome belongs to `Cc1ccc(S(=O)(=O)NCl)cc1` ?
output: inactive

input: Per the records of this test, what outcome belongs to COC(=O)C1CCC(C(=O)OC)CC1 (centres undefined) ?
output: inactive

###

assay.protocol: BSK_4H_Eotaxin3: BioMAP Diversity Plus: 4H Assay for Eotaxin 3 Biomarker Activity (AID 2283000);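 on outcome: CCL26 protein level quantified by ELISA in parallel with SRB cytotoxicity check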
test.context: primary human endothelial cells (HUVEC); actives raise or lower the signal
Active and inactive are the calls of the source. How the source made its calls: active means hit-call score of the fitted dose curve at least 0.9, where 1 is the maximum; inactive means score below 0.9.
Respond with a class label; see t = active, f = inactive

input: Per the records of this test, what outcome belongs to `CCCCNc1ccccc1` ?
output: f

input: Per the records of this test, what outcome belongs to `CCc1ccc(C(c2ccc(CC)cc2)C(Cl)Cl)cc1` ?
output: t

input: Per the records of this test, what outcome belongs to `FC(F)(F)C(F)(F)C(F)(F)C(F)(F)C(F)(F)C(F)(F)C(F)(F)I` ?
output: f

input: Per the records of this test, what outcome belongs to `OCC(F)(F)C(F)(F)C(F)(F)C(F)(F)C(F)(F)C(F)F` ?
output: f

input: Per the records of this test, what outcome belongs to `NC(=O)C(F)(F)C(F)(F)C(F)(F)C(F)(F)F` ?
output: f

input: Per the records of this test, what outcome belongs to `CCc1c(Br)c(Br)c(Br)c(Br)c1Br` ?
output: t

input: Per the records of this test, what outcome belongs to `FC(F)(F)C(F)(F)CNCC(F)(F)C(F)(F)F` ?
output: f

input: Per the records of this test, what outcome belongs to `OCC(F)(F)C(F)(F)C(F)(F)C(F)F` ?
output: f

input: Per the records of this test, what outcome belongs to `FC(F)(F)C(F)(F)C(F)(F)C(F)(F)C(F)(F)C(F)(F)CCS` ?
output: f

input: Per the records of this test, what outcome belongs to `COC(=O)CCC(F)(F)C(F)(F)C(F)(F)C(F)(F)F` ?
output: f

input: Per the records of this test, what outcome belongs to `O=C(O)C(F)(F)C(F)(F)OC(F)(F)F` ?
output: f

input: Per the records of this test, what outcome belongs to O=C(O)C(F)(OC(F)(F)C(F)(OC(F)(F)C(F)(F)C(F)(F)F)C(F)(F)F)C(F)(F)F (configuration not stated) ?
output: f

###

assay.protocol: ATG_Oct_MLP_CIS: Attagene CIS-FACTORIAL HepG2 Assay for human Octamer-Binding Transcription Factor (Oct) (AID 2282993)
test.context: HepG2 Attagene cis-factorial Oct reporter, mRNA; actives raise or lower the signal
Experimental: ATG_CIS is a cell-based, multiplexed-readout assay that uses HepG2, a human liver cell line, with measurements taken at 24 hours after chemical dosing in a 24-well plate.ATG_Oct_MLP_CIS is one of 52 assay component(s) measured or calculated from the ATG_CIS assay. […] This assay endpoint, ATG_Oct_MLP_CIS, was analyzed with bidirectional fitting relative to DMSO as the negative control and baseline of activity. […]
Activity calls are given as the source filed them. How the source made its calls: active means hit-call score of the fitted dose curve at least 0.9, where 1 is the maximum; inactive means score below 0.9.
Respond with a class label; see TRUE = active, FALSE = inactive

input: Per the records of this test, what outcome belongs to `C=C(C)C(=O)OCCC(F)(F)C(F)(F)C(F)(F)C(F)(F)C(F)(C(F)(F)F)C(F)(F)F` ?
output: FALSE

input: Per the records of this test, what outcome belongs to `CCCCOc1ccc(N)cc1` ?
output: FALSE

input: Per the records of this test, what outcome belongs to FC1CC(F)(F)C(F)(F)C1(F)F (stereo unspecified) ?
output: FALSE

input: Per the records of this test, what outcome belongs to `Cc1cc(C)cc(O)c1` ?
output: FALSE

input: Per the records of this test, what outcome belongs to `OCC(F)(F)C(F)(F)C(F)(F)C(F)(F)C(F)(F)C(F)(F)F` ?
output: FALSE

input: Per the records of this test, what outcome belongs to `CC/C=C\CCOC(=O)c1ccccc1` ?
output: FALSE

input: Per the records of this test, what outcome belongs to `C1COCCN1` ?
output: FALSE

input: Per the records of this test, what outcome belongs to `Cc1ccc(S(=O)(=O)NCl)cc1` ?
output: FALSE

input: Per the records of this test, what outcome belongs to CCCCCCC(C)OC(=O)CCCCC(=O)OC(C)CCCCCC (stereo unspecified) ?
output: FALSE

input: Per the records of this test, what outcome belongs to `C=CC(=O)OCC(F)(F)C(F)(F)C(F)(F)C(F)(F)COC(=O)C=C` ?
output: TRUE

input: Per the records of this test, what outcome belongs to `CCN(CC)c1ccc2c(C)cc(=O)oc2c1` ?
output: FALSE

input: Per the records of this test, what outcome belongs to `CCCCCC=O` ?
output: FALSE

input: Per the records of this test, what outcome belongs to `C=C(C)C(=O)OCC(F)(F)C(F)(F)C(F)(F)C(F)(F)C(F)(F)C(F)(F)C(F)(F)F` ?
output: FALSE

input: Per the records of this test, what outcome belongs to `CCc1c(Br)c(Br)c(Br)c(Br)c1Br` ?
output: FALSE

input: Per the records of this test, what outcome belongs to `Nc1ccc(S(=O)(=O)Nc2nccs2)cc1` ?
output: FALSE

input: Per the records of this test, what outcome belongs to `FC(F)(F)C(F)(F)C(F)(F)CI` ?
output: FALSE

input: Per the records of this test, what outcome belongs to `Nc1cc(Cl)c(N)c(Cl)c1` ?
output: FALSE

input: Per the records of this test, what outcome belongs to COC(OC(C)=O)c1ccccc1 (stereo unspecified) ?
output: FALSE

input: Per the records of this test, what outcome belongs to `O=P(O)(O)OCCC(F)(F)C(F)(F)C(F)(F)C(F)(F)C(F)(F)C(F)(F)F` ?
output: FALSE

input: Per the records of this test, what outcome belongs to `O=C(O)C(F)(F)C(F)(F)C(F)(F)C(F)(F)F` ?
output: FALSE

input: Per the records of this test, what outcome belongs to `C=C(C)C(=O)OCC(F)(F)C(F)(F)C(F)(F)F` ?
output: FALSE

input: Per the records of this test, what outcome belongs to `O=C(O)C(F)(F)C(F)(F)C(F)F` ?
output: FALSE

input: Per the records of this test, what outcome belongs to `C(=C(c1ccccc1)c1ccccc1)c1ccccc1` ?
output: FALSE

input: Per the records of this test, what outcome belongs to CC(CCl)OP(=O)(OC(C)CCl)OC(C)CCl (stereo unspecified) ?
output: FALSE

input: Per the records of this test, what outcome belongs to `O=C(Cl)C(F)(F)C(F)(F)C(F)(F)C(F)(F)C(F)(F)C(F)(F)C(F)(F)C(F)(F)F` ?
output: TRUE

input: Per the records of this test, what outcome belongs to O=C(O)C(F)(OC(F)(F)C(F)(OC(F)(F)C(F)(F)C(F)(F)F)C(F)(F)F)C(F)(F)F (stereo unspecified) ?
output: FALSE

input: Per the records of this test, what outcome belongs to `c1ccc(B(c2ccccc2)c2ccccc2)cc1` ?
output: TRUE

input: Per the records of this test, what outcome belongs to `C=CC(F)(F)C(F)(F)C(F)(F)C(F)(F)C(F)(F)C(F)(F)C(F)(F)C(F)(F)C=C` ?
output: FALSE

input: Per the records of this test, what outcome belongs to CC(C)=CCCC(C)CCOC(=O)C(C)C (stereo unspecified) ?
output: FALSE

input: Per the records of this test, what outcome belongs to `FC(F)(F)C(F)(F)C(F)(F)C(F)(F)C(F)(F)C(F)(F)C(F)(F)Br` ?
output: FALSE

input: Per the records of this test, what outcome belongs to `CNC(=S)NC` ?
output: FALSE
